The reported measurements were obtained from patent US20250326839A1.

# target-or-system: T1, human TREM2 (human, UniProt Q9NZC2 19-174, limits assumed)
# T1 construct: also called triggering receptor expressed on myeloid cells 2
# T1 sequence: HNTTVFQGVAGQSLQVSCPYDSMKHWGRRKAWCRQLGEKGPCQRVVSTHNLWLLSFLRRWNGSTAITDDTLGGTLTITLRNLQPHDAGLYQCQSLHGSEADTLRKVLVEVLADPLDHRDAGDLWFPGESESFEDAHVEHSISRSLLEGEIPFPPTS
# test-method-notes: 2nd screen, 2 nM
property: Binding Signal

In plain terms, V37 (antibody, V domains shown, also called 6E7 variant V37) VH: EVQLVQSGAEVKKPGESLKISCKGSGYSHTSYWIAWVRQMPGKGLEWMGIIYPGDSDTRYSPSFAGQVTISADKSISTAYLQWSSLKASDTAMYFCARSRTFYYDSSDYFDYWGQGTLVTVSS VL: DIQMTQSPSSVSASVGDRVTITCRASQGISSWLAWYQQKPGKAPKLLIYAASSLQWGVPSRFSGSGSGTDFTLTISSLQPEDFATYFCQQADSYPRTFGQGTKLEIK has a documented Binding Signal of 3.69 fold over 6E7 parental antibody

Kindly note the recorded Binding Signal for V36 (antibody, V domains shown, also called 6E7 variant V36) VH: EVQLVQSGAEVKKPGESLKISCKGSGYSFTSYWLAWVRQMPGKGLEWMGIIYPGDSDTRYSPSFQGQVTISADKSISTAYLQWSSLKASDTAMYFCARSRTFYYDSSDYFDYWGQGTLVTVSS VL: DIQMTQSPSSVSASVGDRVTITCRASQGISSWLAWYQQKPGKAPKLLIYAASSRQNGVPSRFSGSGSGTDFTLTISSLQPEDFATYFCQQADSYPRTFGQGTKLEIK , which is 4 fold over 6E7 parental antibody

Lab note: V88 (antibody, V domains shown, also called 6E7 variant V88) VH: EVQLVQSGAEVKKPGESLKISCKGSGYSFGSYWIAWVRQMPGKGLEWMGIIYPGDSDTRYSPSFQGQVTISADKSISTAYLQWSSLKASDTAMYFCARQRTFYYDSSDYFDYWGQGTLVTVSS VL: DIQMTQSPSSVSASVGDRVTITCRASQGISSWLAWYQQKPGKAPKLLIYAASRLQRGVPSRFSGSGSGTDFTLTISSLQPEDFATYFCQQADSSPRTFGQGTKLEIK gave Binding Signal of 5.57 fold over 6E7 parental antibody

So for V74 (antibody, V domains shown, also called 6E7 variant V74) VH: EVQLVQSGAEVKKPGESLKISCKGSGYSFASYWIAWVRQMPGKGLEWMGIIYPGDSDVRYSPSFQGQVTISADKSISTAYLQWSSLKASDTAMYFCARGRTFYYDSSDYFDYWGQGTLVTVSS VL: DIQMTQSPSSVSASVGDRVTITCRASQGISSWLAWYQQKPGKAPKLLIYAASSLQLGVPSRFSGSGSGTDFTLTISSLQPEDFATYFCQQADSFPRTFGQGTKLEIK , the logged Binding Signal turned out to be 2.54 fold over 6E7 parental antibody

Looking up V73 (antibody, V domains shown, also called 6E7 variant V73; LV-106/HV-109) VH: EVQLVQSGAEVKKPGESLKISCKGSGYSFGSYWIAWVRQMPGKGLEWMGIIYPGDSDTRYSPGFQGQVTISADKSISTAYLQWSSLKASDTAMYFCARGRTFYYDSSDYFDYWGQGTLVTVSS VL: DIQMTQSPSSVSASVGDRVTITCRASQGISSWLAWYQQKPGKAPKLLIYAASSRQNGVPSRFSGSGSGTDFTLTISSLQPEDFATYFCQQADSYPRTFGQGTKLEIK , I see its Binding Signal listed as 4.17 fold over 6E7 parental antibody
